experiment_description: Metabolic stability in mouse liver microsomes at 1 uM assessed as compound remaining incubated for 60 mins followed by NADPH generating system addition and measured by LC-MS/MS analysis
Assay type: ADME, Microsome
protocol_conditions: read-out: Stability
readout: remaining at 1 h, 1 µM (%)

query_smiles	test_value
Cc1ccc2c(c1)[C@H](O)CC[C@H]2NC(=O)c1ccc(C(F)(F)F)[nH]c1=O	105

====

Reported half-life at 1 µM values for a set of compounds
experiment_description: Half-life in human liver microsomes at 1 uM incubated for 60 mins followed by NADPH generating system addition and measured by LC-MS/MS analysis
Format: ADME, Microsome

query_smiles	half-life at 1 µM
CCC[C@H]1C[C@@H](NC(=O)c2ccc(C(F)(F)F)[nH]c2=O)c2cc(C)ccc2N1	1.51 h
CCC[C@H]1Oc2ccc(C)cc2[C@@H]1NC(=O)c1ccc(C(F)(F)F)[nH]c1=O	0.652 h
CCC[C@@H]1C[C@@H](NC(=O)c2ccc(C(F)(F)F)[nH]c2=O)c2cc(C)ccc2N1	1.37 h
